Biological target: Feline_OSMR_hlgG1_Fc (feline)
Sequence (chain, as listed by the source limits assumed, form in doubt): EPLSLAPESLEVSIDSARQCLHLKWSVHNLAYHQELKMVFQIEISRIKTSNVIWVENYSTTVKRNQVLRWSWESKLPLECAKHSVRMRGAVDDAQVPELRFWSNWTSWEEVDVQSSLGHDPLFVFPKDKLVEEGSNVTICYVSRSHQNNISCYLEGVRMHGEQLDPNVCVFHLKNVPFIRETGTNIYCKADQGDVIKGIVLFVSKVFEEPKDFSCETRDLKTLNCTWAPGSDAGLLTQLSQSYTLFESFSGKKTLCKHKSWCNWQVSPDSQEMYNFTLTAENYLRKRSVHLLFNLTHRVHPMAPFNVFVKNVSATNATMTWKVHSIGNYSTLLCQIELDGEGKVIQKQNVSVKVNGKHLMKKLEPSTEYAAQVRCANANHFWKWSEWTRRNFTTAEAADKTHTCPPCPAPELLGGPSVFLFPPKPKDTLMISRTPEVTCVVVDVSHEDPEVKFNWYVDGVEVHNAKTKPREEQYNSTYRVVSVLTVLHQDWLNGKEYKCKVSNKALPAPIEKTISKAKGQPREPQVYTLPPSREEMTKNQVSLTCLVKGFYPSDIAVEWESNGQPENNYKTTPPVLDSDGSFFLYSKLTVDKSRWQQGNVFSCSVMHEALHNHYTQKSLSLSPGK
Experiment: SPR Biacore
Reported koff values follow for various binders
Record the value in s⁻¹, omitting the unit from your answer.

>  <binder>
mouse: canine 09E09 chimera (antibody, V domains shown) VH: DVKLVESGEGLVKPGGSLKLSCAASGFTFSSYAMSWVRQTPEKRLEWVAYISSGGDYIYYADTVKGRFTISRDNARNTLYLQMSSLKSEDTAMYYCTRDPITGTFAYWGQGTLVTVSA VL: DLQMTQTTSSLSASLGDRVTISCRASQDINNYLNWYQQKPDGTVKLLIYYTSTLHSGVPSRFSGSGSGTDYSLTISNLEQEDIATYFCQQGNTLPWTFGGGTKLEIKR

>  <koff, s⁻¹>
0.000945

$$$$

// query Returns the measured koff for the input binder. Input: mouse: canine 02D09 chimera (antibody, V domains shown) VH: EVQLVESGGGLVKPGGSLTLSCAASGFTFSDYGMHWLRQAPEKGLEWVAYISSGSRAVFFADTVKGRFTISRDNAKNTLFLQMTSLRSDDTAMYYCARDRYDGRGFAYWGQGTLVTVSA VL: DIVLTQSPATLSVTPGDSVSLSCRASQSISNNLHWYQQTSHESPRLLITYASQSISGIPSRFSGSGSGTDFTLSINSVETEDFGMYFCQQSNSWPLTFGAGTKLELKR
// result 0.00119
